Target: Ubiquitin carboxyl-terminal hydrolase 7 (Homo sapiens, UniProt Q93009)
Sequence (Q93009 whole entry): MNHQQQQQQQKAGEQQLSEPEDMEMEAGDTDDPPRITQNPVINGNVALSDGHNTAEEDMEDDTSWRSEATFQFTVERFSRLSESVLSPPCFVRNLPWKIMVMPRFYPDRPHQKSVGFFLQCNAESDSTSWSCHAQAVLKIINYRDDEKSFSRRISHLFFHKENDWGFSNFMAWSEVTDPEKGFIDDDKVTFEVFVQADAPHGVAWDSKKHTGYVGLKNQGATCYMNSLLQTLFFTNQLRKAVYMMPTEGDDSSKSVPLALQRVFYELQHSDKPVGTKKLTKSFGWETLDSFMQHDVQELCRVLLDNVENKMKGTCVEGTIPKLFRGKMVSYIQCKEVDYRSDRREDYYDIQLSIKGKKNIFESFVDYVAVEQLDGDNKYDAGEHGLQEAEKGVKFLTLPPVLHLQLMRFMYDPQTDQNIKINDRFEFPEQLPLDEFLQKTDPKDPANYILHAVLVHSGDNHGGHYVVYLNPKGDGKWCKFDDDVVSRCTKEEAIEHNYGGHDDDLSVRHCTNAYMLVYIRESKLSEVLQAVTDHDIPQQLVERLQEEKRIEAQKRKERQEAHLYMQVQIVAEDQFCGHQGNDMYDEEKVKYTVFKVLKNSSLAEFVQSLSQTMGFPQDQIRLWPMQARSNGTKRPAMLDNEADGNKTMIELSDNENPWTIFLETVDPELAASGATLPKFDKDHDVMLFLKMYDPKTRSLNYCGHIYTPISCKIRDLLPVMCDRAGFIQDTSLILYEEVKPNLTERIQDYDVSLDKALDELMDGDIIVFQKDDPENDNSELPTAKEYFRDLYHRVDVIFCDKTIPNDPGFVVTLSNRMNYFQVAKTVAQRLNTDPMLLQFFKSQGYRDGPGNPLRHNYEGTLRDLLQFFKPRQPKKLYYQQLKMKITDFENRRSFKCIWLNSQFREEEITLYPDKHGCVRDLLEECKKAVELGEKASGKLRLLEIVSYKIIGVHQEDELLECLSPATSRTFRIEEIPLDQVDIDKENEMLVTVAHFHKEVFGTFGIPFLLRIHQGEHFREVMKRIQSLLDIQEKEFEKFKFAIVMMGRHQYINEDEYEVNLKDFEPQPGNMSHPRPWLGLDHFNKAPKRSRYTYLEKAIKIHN
Experiment: Inhibition of USP7 in multiple myeloma cells (unknown origin) by immunohistochemistry
Assay type: cell-based
Readout: EC50 (µM)
// units = µM; emit number, no label

Query: Report EC50 for "O=[N+]([O-])c1cc(CCO)sc1Sc1cccc(Cl)c1Cl" please.
Response: 20.1

* * *

Biological target: UniProt:Q92995
Sequence (Q92995 whole entry): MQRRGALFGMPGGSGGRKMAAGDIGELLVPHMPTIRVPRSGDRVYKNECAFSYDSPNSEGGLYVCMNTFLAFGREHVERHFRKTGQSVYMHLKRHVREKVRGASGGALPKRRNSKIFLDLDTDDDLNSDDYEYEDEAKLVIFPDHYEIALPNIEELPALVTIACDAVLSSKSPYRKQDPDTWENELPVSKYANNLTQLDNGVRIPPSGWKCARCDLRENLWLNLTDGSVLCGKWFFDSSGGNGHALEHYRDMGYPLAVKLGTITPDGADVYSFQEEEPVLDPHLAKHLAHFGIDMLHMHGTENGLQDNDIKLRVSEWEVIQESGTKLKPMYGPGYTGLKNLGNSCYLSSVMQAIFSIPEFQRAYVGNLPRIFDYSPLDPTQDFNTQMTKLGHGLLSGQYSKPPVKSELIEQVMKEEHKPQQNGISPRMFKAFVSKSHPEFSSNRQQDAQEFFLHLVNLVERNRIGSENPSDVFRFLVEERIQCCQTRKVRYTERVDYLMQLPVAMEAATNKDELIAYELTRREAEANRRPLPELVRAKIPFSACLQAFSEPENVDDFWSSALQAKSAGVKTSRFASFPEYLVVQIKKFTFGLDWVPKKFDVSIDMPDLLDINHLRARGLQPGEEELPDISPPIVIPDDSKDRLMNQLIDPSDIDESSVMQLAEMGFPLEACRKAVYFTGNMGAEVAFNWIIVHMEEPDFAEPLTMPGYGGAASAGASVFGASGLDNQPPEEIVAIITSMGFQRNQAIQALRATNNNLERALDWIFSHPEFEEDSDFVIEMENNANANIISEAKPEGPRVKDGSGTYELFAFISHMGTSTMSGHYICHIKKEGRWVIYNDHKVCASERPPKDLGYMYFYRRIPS
Readout: IC50 (nM)
// units = nM; emit number, no label

Query: Report IC50 for "Fc1ccc(CNc2ncnc3ccc(F)cc23)cc1" please.
Response: 600

* * *

Biological target: Ubiquitin carboxyl-terminal hydrolase 7 (Homo sapiens, UniProt Q93009)
Readout: IC50
Be sure to follow the number with its unit.

Query: Report IC50 for "N#Cc1nc2c(nc1C#N)-c1cc(Cl)ccc1C2=O" please.
Response: 420 nM

* * *

Target: Ubiquitin carboxyl-terminal hydrolase 1 (Homo sapiens, UniProt O94782)
Sequence (O94782 whole entry): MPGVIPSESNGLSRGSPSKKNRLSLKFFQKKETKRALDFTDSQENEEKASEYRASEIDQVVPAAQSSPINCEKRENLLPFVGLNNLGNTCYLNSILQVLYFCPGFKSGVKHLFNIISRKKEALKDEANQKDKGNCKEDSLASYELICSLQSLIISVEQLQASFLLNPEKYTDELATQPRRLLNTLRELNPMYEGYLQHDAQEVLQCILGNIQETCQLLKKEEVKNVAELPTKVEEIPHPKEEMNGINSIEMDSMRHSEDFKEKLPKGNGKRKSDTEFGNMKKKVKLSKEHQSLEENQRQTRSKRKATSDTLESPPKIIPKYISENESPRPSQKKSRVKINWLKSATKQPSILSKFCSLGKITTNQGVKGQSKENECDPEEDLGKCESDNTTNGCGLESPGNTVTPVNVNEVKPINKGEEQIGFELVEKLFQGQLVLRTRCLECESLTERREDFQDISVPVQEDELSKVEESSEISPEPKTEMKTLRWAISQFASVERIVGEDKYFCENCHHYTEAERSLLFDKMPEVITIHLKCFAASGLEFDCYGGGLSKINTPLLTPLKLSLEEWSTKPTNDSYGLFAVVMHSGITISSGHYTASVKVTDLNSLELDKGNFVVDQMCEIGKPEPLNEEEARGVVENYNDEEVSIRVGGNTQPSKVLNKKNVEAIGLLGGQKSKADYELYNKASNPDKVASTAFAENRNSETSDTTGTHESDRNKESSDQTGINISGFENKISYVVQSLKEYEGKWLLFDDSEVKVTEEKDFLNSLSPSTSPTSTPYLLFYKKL
Readout: IC50 (µM)
// units = µM; emit number, no label

Query: Please provide the recorded IC50 for "O=C1c2ccccc2C(=O)c2oc(-c3ccccc3)nc21" , tested on Ubiquitin carboxyl-terminal hydrolase 1 (Homo sapiens, UniProt O94782).
Response: 0.544
